These data points were gathered from patent US20130096105A1.

assayed_target: Collagenase-3 (MMP-13) (Homo sapiens, UniProt P45452)
measurement_notes: Collagenase-3 (MMP-13) inhibitory activity, fluorogenic peptide substrate cleavage
Assay type: biochemical
test_context: read-out: MMP13 IC50
Mark each entry t if its IC50 sits below 600 nM, and f for all others.

molecule=NS(=O)(=O)c1cc(C(=O)c2ccc3c(c2)CCN3)ccc1Cl group=f
molecule=C[Si](C)(C)C#Cc1ccc(C(=O)c2ccc(Cl)c(S(N)(=O)=O)c2)cc1 group=f
molecule=Cc1cc(-c2c[nH]c3cc(C(=O)c4ccc(Cl)c(S(N)(=O)=O)c4)ccc23)ccn1 group=t
molecule=CC(C)CCn1ccc2cc(C(=O)c3ccc(Cl)c(S(N)(=O)=O)c3)ccc21 group=f
molecule=NS(=O)(=O)c1cc(C(=O)c2ccc(N3CCC(c4ccccc4)CC3)cc2)ccc1Cl group=t
molecule=NS(=O)(=O)c1cc(C(=O)c2ccc3c(-c4ccsc4)c[nH]c3c2)ccc1Cl group=f
molecule=NS(=O)(=O)c1cc(C(=O)c2ccc3c(-c4ccnc(CCCN5CCOCC5)c4)c[nH]c3c2)ccc1Cl group=t
